Assayed System: Hypoxia-inducible factor 1-alpha (Homo sapiens)
Protocol Description: HIF-2a and HIF-1a reporter inhibition panel, dose response, selectivity assay for HIF-2a inhibitor project, cell-based, luminescence (AID 651581)
Stated Conditions: HIF-1a, run 2
Assay Readout: IC50

Compound Smiles	IC50
O=C1C=C(c2ccccc2)C(=O)N1Nc1ccccc1	89.5 µM

The compound O=C1C=CC(=O)N1c1cccc(-c2ccccc2)c1 , tested on Hypoxia-inducible factor 1-alpha (Homo sapiens), showed IC50 of 36.6 µM

// assay Hypoxia-inducible factor 1-alpha (Homo sapiens), entry COC(=O)CCCNC(=O)CCc1nnc(-c2ccc(-c3ccccc3)cc2)o1 , IC50 value = > 99 µM

Tested on Hypoxia-inducible factor 1-alpha (Homo sapiens): Cc1ccc(NC(=S)NNc2ncc(C(F)(F)F)cc2Cl)cc1 . Observed IC50: 33.5 µM

Hypoxia-inducible factor 1-alpha (Homo sapiens) IC50 of CC(C)(C)c1ccc(-c2noc(CCC(N)=O)n2)cc1 is > 99 µM

The reported Hypoxia-inducible factor 1-alpha (Homo sapiens) IC50 of COc1cc(/C=C/[N+](=O)[O-])ccc1O is 28.3 µM

---

// IC50 lookup, one value per entry
Assayed System: Endothelial PAS domain-containing protein 1 (Homo sapiens) (UniProt Q99814)
Protocol Description: HIF-2a and HIF-1a reporter inhibition panel, dose response, selectivity assay for HIF-2a inhibitor project, cell-based, luminescence (AID 651581)
Stated Conditions: HIF-2a PANC, run 1
Provide the reading as a plain figure in µM.

Molecule	Assayed System	Value Unit	IC50
N=c1nc(SCCC(=O)O)ss1	Endothelial PAS domain-containing protein 1 (Homo sapiens) (UniProt Q99814)	µM	30.8
Cc1nc(SCc2ccc(C(=O)O)cc2)nc2c1CCCC2	Endothelial PAS domain-containing protein 1 (Homo sapiens) (UniProt Q99814)	µM	20.8
CCOC(=O)C1CCN(C(=O)Nc2ccc3snnc3c2)CC1	Endothelial PAS domain-containing protein 1 (Homo sapiens) (UniProt Q99814)	µM	19.4

The recorded IC50 for entry O=C(Nc1ccc(F)cc1)c1nc(S(=O)(=O)Cc2ccccc2)ncc1Cl equals 26.2

Lab note: measured IC50 of CCOC(=O)C1CCCN(C(=O)COc2ccc(C(C)(C)C)cc2)CC1 (stereo not drawn) was 16.5

COCCn1c(C)cc(C(=O)CSc2nnc3ccccn23)c1C yielded IC50 of 81.3

Kindly note the recorded IC50 for O=C(O)COc1ccc2oc3ccccc3c2c1 , which is 75.3

---

Assayed System: Endothelial PAS domain-containing protein 1 (Homo sapiens) (UniProt Q99814)
Protocol Description: HIF-2a and HIF-1a reporter inhibition panel, dose response, selectivity assay for HIF-2a inhibitor project, cell-based, luminescence (AID 651581)
Stated Conditions: HIF-2a, run 1
Assay Readout: IC50 (µM)
Value expressed in µM; do not type the unit.

In the examples that follow, each entry is paired with its recorded IC50.
Compound	IC50 [µM]
CCOC(=O)C1CCCN(C(=O)COc2ccc(C(C)(C)C)cc2)CC1 (stereo unspecified)	8.72
O=C(OCC(F)(F)F)c1cccc(COc2ccc3ccccc3c2)c1	2.92
O=Nc1c(O)ccc2cc(S(=O)(=O)O)ccc12	8.62

IC50 measured on CC(=O)Nc1ccc(Oc2sc(C(=O)c3ccccc3)c(N)c2C#N)cc1 = 17.5

# IC50 of CCOC(=O)Cc1csc(NC(=S)NC(=O)c2ccc([N+](=O)[O-])cc2)n1 = 5.83

The compound identified as COc1cc(/C=N/O)ccc1OCc1ccc(C(=O)O)cc1 registered its IC50 at 5.58

---

Assayed System: Endothelial PAS domain-containing protein 1 (Homo sapiens) (UniProt Q99814)
Protocol Description: HIF-2a and HIF-1a reporter inhibition panel, dose response, selectivity assay for HIF-2a inhibitor project, cell-based, luminescence (AID 651581)
Stated Conditions: HIF-2a PANC, run 1
pIC50: −log10 of the molar value.
Attribute: pIC50

# annotated cases, reported pIC50 shown
Compound Smiles	Assayed System	pIC50
CC(=O)Nc1ccc(OCC(=O)c2ccc(C)cc2C)cc1	Endothelial PAS domain-containing protein 1 (Homo sapiens) (UniProt Q99814)	5.52
O=C(NCc1ccccc1)C(=O)Nc1cccc(C(=O)O)c1	Endothelial PAS domain-containing protein 1 (Homo sapiens) (UniProt Q99814)	< 4.00

The molecule listed as CCOC(=O)Cn1cc(/C=C/[N+](=O)[O-])c2ccccc21 has a reported pIC50 of < 4.00

So for Cc1c(CCC(=O)N[C@@H](CC(C)C)C(=O)O)c(=O)oc2cc3oc4c(c3cc12)CCCC4 , the logged pIC50 turned out to be 5.59

// pIC50 value for NC(=O)COC(=O)CCCSc1nc2ccccc2s1 : < 4.00

Per the records, this molecule ( CC1(C)CC[C@]2(C(=O)O)CC[C@]3(C)C(=CC[C@@H]4[C@@]5(C)CC[C@H](O[C@@H]6O[C@H](C(=O)O)[C@@H](O)[C@H](O[C@@H]7OC[C@H](O)[C@H](O)[C@H]7O)[C@H]6O)C(C)(C)[C@@H]5CC[C@]43C)[C@@H]2C1 ) has pIC50 equal to < 4.00

Sure, the documented pIC50 for COc1cc(/C=N/O)ccc1OCc1ccc(C(=O)O)cc1 is < 4.00

The molecule identified as N#Cc1c(NC(=O)CSc2ncn[nH]2)sc2c1CCCCC2 registered its pIC50 at > 6.72

Record summary for Cc1ccc(/C=N/Nc2cccc(C(=O)O)c2)s1 : reported pIC50 = < 4.00

---

Assayed System: Endothelial PAS domain-containing protein 1 (Homo sapiens) (UniProt Q99814)
Protocol Description: HIF-2a and HIF-1a reporter inhibition panel, dose response, selectivity assay for HIF-2a inhibitor project, cell-based, luminescence (AID 651581)
Stated Conditions: HIF-2a PANC, run 1
Assay Readout: pIC50
pIC50 (log units): -log10 of the concentration in mol/L.

Query COc1cc(OC)cc(-c2nnc(Nc3nc4c(F)cccc4s3)o2)c1 yields pIC50 of 5.14

The compound listed as NCCN1C(=O)S/C(=C\c2ccc3c(c2)OCO3)C1=O has a reported pIC50 of 5.03

Please fill in: pIC50 reported for CC(=O)Nc1ccc(NC(=O)c2c([N+](=O)[O-])c(C(C)(C)C)nn2C)cc1 = 4.95

pIC50 for S=C(c1ccc(-c2ccccc2)cc1)N1CCOCC1 is 5.60

---

Assayed System: Endothelial PAS domain-containing protein 1 (Homo sapiens)
Protocol Description: HIF-2a and HIF-1a reporter inhibition panel, dose response, selectivity assay for HIF-2a inhibitor project, cell-based, luminescence (AID 651581)
Stated Conditions: HIF-2a, mean of runs
Active and inactive are the calls of the source. The rule behind the calls is not given here.
Respond using exactly one of the listed classes: active, inactive

Compound	Assayed System	Label Class
CCOC(=O)c1ccc(Oc2nc(NC(C)(C)C)nc(N(C)C)n2)cc1	Endothelial PAS domain-containing protein 1 (Homo sapiens)	inactive
CCOC(=O)Cc1csc(NC(=S)NC(=O)c2ccccc2C)n1	Endothelial PAS domain-containing protein 1 (Homo sapiens)	inactive
CCOC(=O)Cc1csc(NC(=S)NC(=O)c2ccc(F)cc2)n1	Endothelial PAS domain-containing protein 1 (Homo sapiens)	active
O=C(O)c1cccc(-c2nc3ccccc3[nH]2)c1	Endothelial PAS domain-containing protein 1 (Homo sapiens)	inactive

API: the following record is the query input.
Problem: I'd appreciate the recorded outcome for COc1ccc(-n2nc3ccc(N)cc3n2)cc1 from this test.
Result: inactive

---

Assayed System: Endothelial PAS domain-containing protein 1 (Homo sapiens) (UniProt Q99814)
Protocol Description: HIF-2a and HIF-1a reporter inhibition panel, dose response, selectivity assay for HIF-2a inhibitor project, cell-based, luminescence (AID 651581)
Stated Conditions: HIF-2a PANC, run 2
// NB: equality with 4 µM counts as condition not met; only IC50 strictly below is condition met

Some entries whose results are on file:
Molecule	Label Class
Cc1ccc(C(=O)c2cccc(N)c2)cc1C	condition not met
O=C(O)c1cccc(-c2nc3ccccc3[nH]2)c1	condition not met
COC(=O)c1cccc(-c2noc(-c3ccccc3F)n2)c1	condition not met
CCN(CC)CCCC(C)n1c2nc(=O)[nH]c(=O)c-2nc2cc(Cl)ccc21 (stereo not given)	condition not met
Nc1ccc(-c2nnn(CC(=O)N3CCCCC3)n2)cc1	condition not met
Cc1nnnn1/C(=C\c1ccccc1)C(=O)OCC(=O)Nc1ccc(Cl)cc1F	condition not met
CCOC(=O)c1cccc(COC(=O)c2cccc(-c3nnc(-c4ccccc4)o3)c2)c1	condition not met
Cc1c(CCC(=O)N2CCC(C(=O)O)(c3ccccc3)CC2)c(=O)oc2cc3oc4c(c3cc12)CCCC4	condition met

Problem: For CCOC(=O)C1CCCN(C(=O)COc2ccc(C(C)(C)C)cc2)CC1 (stereo not given) , is the recorded IC50 below the cut-off of 4 µM?
Result: condition not met

Problem: Criterion: IC50 strictly below 4 µM. Is it met by NNC(=O)c1cccc(COc2ccc3c(c2)CCC3)c1 ?
Result: condition not met

Problem: Please let me know if Cn1c(/C=C/c2ccc(Cl)cc2)c([N+](=O)[O-])c(=O)n(C)c1=O shows IC50 below 4 µM.
Result: condition not met

Problem: Does COC(=O)CCCNC(=O)CCc1nnc(-c2ccc(-c3ccccc3)cc2)o1 have IC50 strictly under 4 µM?
Result: condition not met

Problem: Does the reported IC50 of the following molecule sit strictly below 4 µM? CCOC(=O)c1ccc(Oc2nc(NC(C)(C)C)nc(N(C)C)n2)cc1
Result: condition not met

Problem: I wonder whether Cc1ccc(-n2nc3ccc(N)cc3n2)c(C)c1 has IC50 below 4 µM. Can you tell?
Result: condition met

Problem: Quick check: IC50 of CC1(C)CC[C@]2(C(=O)O)CC[C@]3(C)C(=CC[C@@H]4[C@@]5(C)CC[C@H](O[C@@H]6O[C@H](C(=O)O)[C@@H](O)[C@H](O[C@@H]7OC[C@H](O)[C@H](O)[C@H]7O)[C@H]6O)C(C)(C)[C@@H]5CC[C@]43C)[C@@H]2C1 under 4 µM?
Result: condition not met

Problem: Quick check: IC50 of CCOC(=O)Cn1cc(/C=C/[N+](=O)[O-])c2ccccc21 under 4 µM?
Result: condition not met

Problem: IC50 strictly < 4 µM for this molecule? Nc1nc2ccc(S(=O)(=O)c3ccc4nc(N)sc4c3)cc2s1
Result: condition not met

Problem: Answer whether the molecule O=C(c1ccccc1)c1cc(Cl)ccc1N1C(=O)C=CC1=O has IC50 strictly less than 4 µM
Result: condition not met

Problem: Is it true that IC50 reported for CC(=O)N(C(C)=O)c1ccc(Oc2ccc(Oc3ccc(N(C(C)=O)C(C)=O)cc3)cc2)cc1 is less than 4 µM?
Result: condition met

Problem: Does the reported IC50 of Cc1c(CCC(=O)N[C@@H](CC(C)C)C(=O)O)c(=O)oc2cc3oc4c(c3cc12)CCCC4 stay below 4 µM?
Result: condition met

src = PubChem BioAssay AID651581
